Where these numbers come from: the supplement of paper PMC9112550

test system: Escherichia coli TOP10; test: shrunken log2 fold change of peptide-encoding DNA abundance (4.5 h post-induction vs induction); higher = less antimicrobial activity (less host growth inhibition); conditions: time post-induction: 4.5 h; library: site-saturation at positions 5, 18, 19, 20;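 note: peptides expressed intracellularly from a pBAD plasmid library in pooled LB shake-flask culture, induced with 0.3% L-arabinose, DNA abundance read by NGS, three biological replicates, DESeq2 with apeglm shrinkage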
MEASURED_ATTRIBUTE: shrunken log2 fold change
Just the number, please, no unit after it.

stdin: Endpoint output: shrunken log2 fold change of RRIRLRPPRLPRPRPRPMLHPRP . Value?
stdout: -0.34

stdin: Fill in the blank: the reported shrunken log2 fold change of RRIRVRPPRLPRPRPRPAKYPRP is ____.
stdout: -0.575

stdin: Suppose we examine the sequence RRIRGRPPRLPRPRPRPFGRPRP ; what shrunken log2 fold change value has been reported?
stdout: -0.0748

stdin: So what's the measured shrunken log2 fold change for this one? RRIRVRPPRLPRPRPRPMENPRP
stdout: -0.0625

stdin: Looking for the measured shrunken log2 fold change of RRIRGRPPRLPRPRPRPPHVPRP , can you help?
stdout: 1.04

stdin: # query: shrunken log2 fold change of entry RRIRSRPPRLPRPRPRPNVKPRP
stdout: -0.332

stdin: Requested read-out: shrunken log2 fold change. Entry: RRIRSRPPRLPRPRPRPFHRPRP
stdout: -0.154

stdin: Reported shrunken log2 fold change for RRIRARPPRLPRPRPRPTTKPRP : what is it?
stdout: 0.541

stdin: I am curious: what shrunken log2 fold change value has been reported for RRIRARPPRLPRPRPRPRAWPRP ?
stdout: 0.699

stdin: I'd like to know its shrunken log2 fold change. The sequence in question is RRIRWRPPRLPRPRPRPIYRPRP
stdout: 0.0155

stdin: Quick check: shrunken log2 fold change of RRIRCRPPRLPRPRPRPMLVPRP ?
stdout: -0.144

stdin: Suppose we examine the sequence RRIRWRPPRLPRPRPRPRDTPRP ; what shrunken log2 fold change value has been reported?
stdout: 0.11

stdin: Please look up its shrunken log2 fold change: RRIRPRPPRLPRPRPRPDIYPRP
stdout: -0.0306

stdin: Entry under review: RRIRGRPPRLPRPRPRPEELPRP . Reported shrunken log2 fold change?
stdout: 1.39

stdin: Reported shrunken log2 fold change, sequence RRIRTRPPRLPRPRPRPEKGPRP : ____
stdout: -0.0355

stdin: // query shrunken log2 fold change value for entry RRIRIRPPRLPRPRPRPWVQPRP
stdout: -0.0105

stdin: What value of shrunken log2 fold change has been reported for the following sequence? RRIRDRPPRLPRPRPRPWFSPRP
stdout: -0.317

stdin: Could you share which shrunken log2 fold change value was measured for RRIRCRPPRLPRPRPRPIRWPRP ?
stdout: 0.034

stdin: I would be grateful if you could share the reported shrunken log2 fold change for RRIRPRPPRLPRPRPRPWNCPRP .
stdout: -0.134

stdin: What does the data say about its shrunken log2 fold change? Entry: RRIRNRPPRLPRPRPRPKAVPRP
stdout: 0.301

stdin: Which shrunken log2 fold change value belongs to RRIRRRPPRLPRPRPRPMDDPRP ?
stdout: 0.211

stdin: # lookup: shrunken log2 fold change of RRIRDRPPRLPRPRPRPRWLPRP
stdout: 0.511

stdin: GET /values?readout=shrunken log2 fold change&item= RRIRPRPPRLPRPRPRPSHDPRP
stdout: -0.339

stdin: Given the sequence RRIRKRPPRLPRPRPRPMYMPRP , what is its reported shrunken log2 fold change?
stdout: -0.103

stdin: Entry under review: RRIRSRPPRLPRPRPRPDWGPRP . Reported shrunken log2 fold change?
stdout: -0.128

stdin: Entry RRIRKRPPRLPRPRPRPYQNPRP has what shrunken log2 fold change?
stdout: -0.198

stdin: shrunken log2 fold change lookup needed for RRIRRRPPRLPRPRPRPEPNPRP , thanks.
stdout: -0.00852

stdin: I'd like to know its shrunken log2 fold change. The sequence in question is RRIRQRPPRLPRPRPRPHDNPRP
stdout: 1.99

stdin: shrunken log2 fold change for RRIRDRPPRLPRPRPRPTTKPRP ?
stdout: 0.0962

stdin: State the recorded shrunken log2 fold change for this entry: RRIRERPPRLPRPRPRPSRYPRP
stdout: -0.481

stdin: What value of shrunken log2 fold change has been reported for the following sequence? RRIRHRPPRLPRPRPRPSTYPRP
stdout: -0.202

stdin: Param item = RRIRGRPPRLPRPRPRPQYSPRP ; retrieve measured shrunken log2 fold change.
stdout: 0.0802
